# MEASUREMENT NOTES: First PK study: single oral dose, two formulations
# Type: in vivo, female Swiss Albino mice
# STUDY CONDITIONS: female, Swiss Albino, mouse, plasma, oral, single dose administration, based on i.v. exposure; read-out: oral bioavailability
READOUT KIND: bioavailability

Request: Record request: bioavailability value, item COc1cc(N2CCNCC2)ccc1Nc1ncc2c(n1)-n1ccc(C(=O)Nc3c(C)cccc3C)c1CC2 [compound of formula (I)]
Response: 76 to 96%

* * *

# MEASUREMENT NOTES: First PK study: single oral dose, two formulations
# Format: in vivo, female Swiss Albino mice
# STUDY CONDITIONS: female, Swiss Albino, mouse, plasma, po, 7.5 mg/kg, single oral 7.5 mg/kg, Formulation 2, female mice, mean (SD)
READOUT KIND: Cmax (ng/mL)
Give bare numbers, in ng/mL.

Request: Record request: Cmax value, item COc1cc(N2CCNCC2)ccc1Nc1ncc2c(n1)-n1ccc(C(=O)Nc3c(C)cccc3C)c1CC2
Response: 172
